- System: HCT-116 colon
- Method summary: NCI-60 one-dose screen, 48 h
- Protocol conditions: 10 µM unless noted
Compounds without any hit were thinned out: in the full panel of roughly 83,000, 20% have a hit. Calls of active or inactive are those of the source. How the source made its calls: active means growth percent below 10; inactive means the rest.
Labels: TRUE for active, FALSE for inactive

>  <Compound>
O=C(NNc1nc2cc(F)c(F)cc2n2cccc12)c1cccnn1

>  <Assigned label>
TRUE

$$$$
>  <Compound>
O=C1CSC(=O)N1Cc1cc2ccccc2nc1Cl

>  <Assigned label>
FALSE

$$$$
>  <Compound>
COc1cc2cc(Oc3ccc(NC(=O)c4cccc(C(F)(F)F)c4)cc3)c(C)nc2cc1OCCN(C)C

>  <Assigned label>
FALSE

$$$$
>  <Compound>
C[C@H]1[C@H](C)CC[C@]2(COC(=O)c3cccnc3)CC[C@]3(C)C(=CC[C@@H]4[C@@]5(C)CCCNC(C)(C)[C@@H]5CC[C@]43C)[C@H]12

>  <Assigned label>
FALSE

$$$$
>  <Compound>
COc1ccc(/C=C/C(=O)c2nnn(-c3ccc(C(=O)O)cc3)c2C)cc1OC

>  <Assigned label>
FALSE

$$$$
>  <Compound>
COc1ccc(Cn2cc3c(c2-c2cc(OC)c(OC)c(OC)c2)CCCc2cnoc2-3)cc1

>  <Assigned label>
FALSE

$$$$
>  <Compound>
N#Cc1c(NC(=O)c2ccccc2C(F)(F)F)sc2c1CCC(=O)C2

>  <Assigned label>
TRUE

$$$$
>  <Compound>
CC(C)=CCC[C@](C)(O)[C@H]1CC[C@]2(C)[C@@H]1CC[C@@H]1[C@@]3(C)CCC(NC(=O)c4ccccc4C(=O)O)C(C)(C)[C@@H]3CC[C@]12C (some centres not stated)

>  <Assigned label>
FALSE

$$$$
>  <Compound>
CC[C@@](C)(NC(=O)C(C)(C)NC(=O)[C@@H](NC(=O)[C@@H]1CCCN1C(=O)C(C)(C)NC(=O)[C@H](CC(C)C)NC(=O)CNC(=O)C(C)(C)NC(=O)[C@@H](NC(=O)C(C)(C)NC(=O)[C@H](CCC(N)=O)NC(=O)[C@H](C)NC(=O)C(C)(C)NC(=O)[C@H](C)NC(=O)C(C)(C)NC(=O)[C@H](C)NC(=O)C(C)(C)NC(C)=O)C(C)C)C(C)C)C(=O)N[C@@H](CCC(N)=O)C(=O)N[C@@H](CCC(N)=O)C(=O)N[C@H](CO)CC1CCCCC1

>  <Assigned label>
FALSE

$$$$
>  <Compound>
CC[C@@](C)(NC(=O)C(C)(C)NC(=O)[C@@H](NC(=O)[C@@H]1CCCN1C(=O)C(C)(C)NC(=O)[C@H](CC(C)C)NC(=O)CNC(=O)C(C)(C)NC(=O)[C@@H](NC(=O)C(C)(C)NC(=O)[C@H](CCC(N)=O)NC(=O)[C@H](C)NC(=O)C(C)(C)NC(=O)[C@H](C)NC(=O)C(C)(C)NC(=O)[C@@H]1CCCN1C(=O)C(C)(C)NC(C)=O)C(C)C)C(C)C)C(=O)N[C@@H](CCC(N)=O)C(=O)N[C@@H](CCC(N)=O)C(=O)N[C@H](CO)Cc1ccccc1

>  <Assigned label>
FALSE

$$$$
>  <Compound>
Cc1nc(-c2cc3ccccc3c(N3CCN(C)CC3)n2)cs1

>  <Assigned label>
FALSE

$$$$
>  <Compound>
Cn1c2ccccc2c2c3c(c4c5ccc(Br)cc5oc4c21)C(=O)N(O)C3=O

>  <Assigned label>
FALSE

$$$$

###

// reported growth for each item listed
- Test system: CAKI-1 renal
- Method summary: NCI-60 one-dose screen, 48 h (100 = growth as untreated, 0 = no growth, -100 = all killed)
- Protocol conditions: 10 µM
This is part of a sample that, as a whole, favours compounds with a hit. Of some 83,000 tested, about 20% had one in any assay.

>  <Compound>
Cn1cc(-c2nn3cc(-c4ccncc4)nc3s2)c2cc(Cl)ccc21

>  <growth / %>
51.3

$$$$
>  <Compound>
COc1cc(/C=C/C(=O)c2ccc(N3CCN(C)CC3)cc2)ccc1F

>  <growth / %>
63.6

$$$$
>  <Compound>
C(=C(\C1=NCCN1)n1cnc2ccccc21)/c1ccc2ccccc2c1

>  <growth / %>
53.3

$$$$
>  <Compound>
CCOC(=O)C1=C(C)Nc2nnc(Nc3ccccc3)n2C1c1ccccc1 (configuration not stated)

>  <growth / %>
69

$$$$
>  <Compound>
NC(=O)N1N=C(c2cc3ccccc3oc2=O)CC1c1cn(-c2ccccc2)nc1-c1ccc(Cl)cc1 (configuration not stated)

>  <growth / %>
32.9

$$$$
>  <Compound>
COCCC[C@H]1O[C@@](O)([C@H](C)[C@@H]2CC(OC)C(O)/C=C(C)/C=C(C)/C=C(\C)C(OC3O[C@@H](C)[C@H](O)C(O)[C@@H]3O)C(C)/C=C(C)/C=C(OC)/C=C(\C)C(=O)O2)C(OC)C(O)[C@]1(C)O[C@H]1C[C@@H](O)[C@H](O[C@H]2C[C@](C)(O)[C@H](O)C(C)O2)C(C)O1 (some centres not stated)

>  <growth / %>
73.8

$$$$
>  <Compound>
CN1CCN(Cc2ccc(NC(=O)c3cncc(C#Cc4cnc5ccc(O[C@H]6CCOC6)nn45)c3)cc2C(F)(F)F)CC1

>  <growth / %>
-96.2

$$$$
>  <Compound>
COc1ccc(C2CC(c3ccc(Nc4nc(NCCO)nc(Nc5ccc(Cl)cc5)n4)cc3)=Nc3c(N)nc(N)nc3N2)cc1 (configuration not stated)

>  <growth / %>
61.1

$$$$
>  <Compound>
c1ccc(-c2c(-c3ccccc3)[n+](Cc3ccc4ccccc4c3)c(-c3ccccc3)n2Cc2ccc3ccccc3c2)cc1

>  <growth / %>
-93.4

$$$$
>  <Compound>
O=C1Nc2ccc(Cl)cc2/C1=C/c1ccc(OCc2ccc(F)cc2)cc1

>  <growth / %>
74.6

$$$$
>  <Compound>
CCOC(=O)C1=C(C)Nc2nc3ccccc3n2C1c1cccc(Br)c1 (configuration not stated)

>  <growth / %>
54.5

$$$$
>  <Compound>
COc1ccc(CN2C(=O)/C(=C/c3nc(CO)cs3)SC2=S)cc1

>  <growth / %>
77

$$$$
>  <Compound>
COCCOc1ccc(-c2csc(NC(=O)CN3CCN(CCO)CC3)n2)cc1NS(=O)(=O)c1cccc2c(N(C)C)cccc12

>  <growth / %>
92

$$$$
>  <Compound>
COc1cc(/C=N/n2cnc3oc(-c4ccccc4)cc3c2=N)cc(CN2CCCC2)c1O

>  <growth / %>
62.7

$$$$
>  <Compound>
Cc1nc(-c2cc3ccccc3c(N3CCN(C)CC3)n2)cs1

>  <growth / %>
72.1

$$$$
>  <Compound>
Cc1cn(-c2cc(NC(=O)c3cncc(C#Cc4cnc5ccc(OCCCS(C)(=O)=O)nn45)c3)cc(C(F)(F)F)c2)cn1

>  <growth / %>
37.4

$$$$
>  <Compound>
O=C(NCCCNc1cc(-c2cn(-c3ccccc3)nc2-c2cccc(O)c2)ccn1)Nc1ccc(F)cc1

>  <growth / %>
12.8

$$$$

###

- System: A549/ATCC NSCLC
- Method summary: NCI-60 one-dose screen, 48 h
- Protocol conditions: 10 µM unless noted
The panel holds about 83,000 compounds, 20% with a hit somewhere; the sample as a whole holds those more often. Active and inactive are the calls of the source. Rule for the calls: active = growth percent below 10; inactive = the rest.
Labels: class 1 for active, class 0 for inactive

>  <Smiles>
C#C[C@]1(O)CC[C@H]2[C@@H]3CC=C4c5sc(Nc6ccncc6)nc5CC[C@]4(C)[C@H]3CC[C@@]21C

>  <Assigned label>
class 1

$$$$
>  <Smiles>
C#C[C@]1(O)CC[C@H]2[C@@H]3CC=C4c5sc(C6CCOCC6)nc5CC[C@]4(C)[C@H]3CC[C@@]21C

>  <Assigned label>
class 0

$$$$
>  <Smiles>
N#Cc1c(-c2cccs2)cc(-c2cnccn2)nc1SCC(=O)NNC(=S)Nc1ccc(F)cc1

>  <Assigned label>
class 0

$$$$
>  <Smiles>
CC(=O)Oc1ccc(CCN2C(=O)CSC2=S)cc1

>  <Assigned label>
class 0

$$$$
>  <Smiles>
O=S(=O)(NCCCNc1nccc(-n2cnc3ccccc32)n1)c1ccc(F)cc1

>  <Assigned label>
class 0

$$$$
>  <Smiles>
O=C(Cn1cc(CN2C(=O)c3ccc([N+](=O)[O-])cc3C2=O)nn1)Nc1ccc(F)cc1Cl

>  <Assigned label>
class 0

$$$$
>  <Smiles>
Cc1cn(-c2cc(NC(=O)c3cncc(C#Cc4cnc5ccc(O[C@@H]6CCOC6)nn45)c3)cc(C(F)(F)F)c2)cn1

>  <Assigned label>
class 1

$$$$
>  <Smiles>
CCCCCCCCNC(=O)c1ccc(Cn2c(CCCC)nc3c(N)nc4ccccc4c32)cc1

>  <Assigned label>
class 0

$$$$
>  <Smiles>
C#C[C@]1(O)CC[C@H]2[C@@H]3CC=C4c5sc(Nc6cc(OC)ccc6OC)nc5CC[C@]4(C)[C@H]3CC[C@@]21C

>  <Assigned label>
class 0

$$$$
>  <Smiles>
N/C(=N\c1nc2c(Cl)cccc2s1)C(Cl)(Cl)Cl

>  <Assigned label>
class 0

$$$$
>  <Smiles>
O=C(Nc1cc(F)cc2cccnc12)c1cnc(N2CCOCC2)cn1

>  <Assigned label>
class 0

$$$$
>  <Smiles>
Cc1ccc(-n2cc(/C=C/C(=O)c3ccc(S(C)(=O)=O)cc3)c(-c3ccc(S(C)(=O)=O)cc3)n2)cc1

>  <Assigned label>
class 0

$$$$
>  <Smiles>
Clc1ccc(-c2csc(N/N=C/c3nc4ccccc4n3C3CC3)n2)cc1

>  <Assigned label>
class 0

$$$$
>  <Smiles>
CCN(CC)CCN1C(=O)c2c(c3c4cccnc4[nH]c3c3ccc4ccccc4c23)C1=O

>  <Assigned label>
class 0

$$$$
>  <Smiles>
COc1cc(NC2=C(Cl)C(=O)c3nc(C)ccc3C2=O)cc(OC)c1

>  <Assigned label>
class 0

$$$$
>  <Smiles>
O=c1cc(-c2ccccc2)nc2sc(-c3c[nH]c4ccc(Br)cc34)nn12

>  <Assigned label>
class 0

$$$$
>  <Smiles>
COc1cc2cc(Oc3ccc(NC(=O)Nc4cccc(C(F)(F)F)c4)cc3)c(C)nc2cc1OCCN(C)C

>  <Assigned label>
class 0

$$$$
>  <Smiles>
O=C(NCCCNc1cc(-c2cn(-c3ccccc3)nc2-c2cccc(O)c2)ccn1)Nc1ccc(F)cc1

>  <Assigned label>
class 0

$$$$
>  <Smiles>
CN1CCN(c2nc(-c3csc(-c4ccncc4)n3)cc3ccccc23)CC1

>  <Assigned label>
class 0

$$$$

The reported measurements were obtained from PubChem BioAssay (NCI).
